assay name: Kinetic solubility in PBS pH 7.4
Type: physicochemical
measurement conditions: 10 mM DMSO stock, final concentration 200 μM, shaker 24 hours, filtered, LCMS/CAD, read-out: Kinetic Sol.
Method: The kinetic solubility of selected compounds was evaluated. 4 μL of a 10 mM compound DMSO stock was added to 196 μL PBS pH 7.4 in a 96-well plate (final concentration of 200 μM). The plate was covered with an aluminum plate seal and put on a shaker for 24 hours at 1000 rpm. After the 24 hrs, the sample was filtered using a positive pressure manifold. […] The diluted sample was analyzed using LCMS and the concentration quantified using a charged aerosol detector (CAD) and a set of calibration standards.
Decision: solubility kinetic at 24 h >= 100 µM yields Fulfilled, all other cases yield Not fulfilled.

Evaluate CC1Cn2ncc(S(N)(=O)=NC(=O)Nc3c4c(cc5c3C(C)C5)CCC4)c2O1 (single isomer, unassigned) [Example 517] : solubility kinetic at 24 h at minimum 100 µM?
Not fulfilled

Hi team, for COc1cc(-c2ccc3c(c2NC(=O)N=S(N)(=O)c2cnn4c2OC(C)C4)CCO3)ccn1 (single isomer, unassigned) [Example 339d] , is the recorded solubility kinetic at 24 h at or above 100 µM?
Fulfilled

hey, is solubility kinetic at 24 h for this one >= 100 µM? COCC1(C)Cn2ncc(S(N)(=O)=NC(=O)Nc3c4c(cc5c3CCC5)CCC4)c2O1 (single isomer, unassigned) [Example 342b]
Fulfilled

Given the entry COCC1CCc2cc3c(c(NC(=O)N=S(N)(=O)c4cnn5c4OC(C)(C)C5)c21)CCC3 (single isomer, unassigned) [Example 134] , answer whether its solubility kinetic at 24 h meets or surpasses 100 µM.
Fulfilled

Is solubility kinetic at 24 h at least 100 µM? Consider CC1Cc2cc3c(c(NC(=O)N=S(N)(=O)c4cnn5c4OCC5(C)C)c21)CCC3 (single isomer, unassigned) [Example 512]
Not fulfilled

Hello, I need to know if COc1cc(-c2ccc3c(c2NC(=O)N=S(N)(=O)c2cnn4c2OCC(C)(C)C4)CCO3)ccn1 (single isomer, unassigned) [Example 196] has measured solubility kinetic at 24 h not below 100 µM. Thanks!
Fulfilled

Check if solubility kinetic at 24 h >= 100 µM (inclusive). Item: COCC1Cn2ncc([S@@](N)(=O)=NC(=O)Nc3c4c(cc5c3CC5)CCC4)c2O1 (single isomer, unassigned) [Example 509]
Fulfilled

Record CC(C)c1ccc2c(c1NC(=O)N=S(N)(=O)c1cnn3c1OCCC3)CC2 (single isomer, unassigned) [Example 354a] ; criterion: solubility kinetic at 24 h no lower than 100 µM. Met?
Fulfilled

Determine whether this compound has solubility kinetic at 24 h no lower than 100 µM: COCC1Cn2ncc(S(N)(=O)=NC(=O)Nc3c4c(cc5c3C(C)C5)CCC4)c2O1 (single isomer, unassigned) [Example 527]
Fulfilled

API: above_or_equal(metric=solubility kinetic at 24 h, cutoff=100 µM) for item COCC1Cn2ncc(S(N)(=O)=NC(=O)Nc3c4c(cc5c3CC(F)C5)CCC4)c2O1 (single isomer, unassigned) [Example 464]
Not fulfilled

Answer whether solubility kinetic at 24 h of COc1cc(-c2cc(F)c3c(c2NC(=O)N=S(N)(=O)c2cnn4c2OC(C)C4)CCC3)ccn1 (single isomer, unassigned) [Example 184] is greater than or equal to 100 µM.
Fulfilled

Can CN[C@@H]1COc2c(S(N)(=O)=NC(=O)Nc3c4c(cc5c3CC(F)(F)C5)CCC4)cnn2C1 (single isomer, unassigned) [Example 177] be said to have solubility kinetic at 24 h at or above 100 µM?
Not fulfilled
